Source listed as paper doi:10.1101/2025.08.05.668571v1.

# study_system: AHK4^CD (6×His-AHK4^CD-GFP) (Arabidopsis thaliana, UniProt Q9C5U0)
# Construct: extracellular CHASE domain, residues 126-395; N-terminal 6×His via linker, C-terminal GFP, tags kept; pRSF-Duet, E. coli Rosetta (BL21), Ni-NTA
# Sequence (Q9C5U0 149-418): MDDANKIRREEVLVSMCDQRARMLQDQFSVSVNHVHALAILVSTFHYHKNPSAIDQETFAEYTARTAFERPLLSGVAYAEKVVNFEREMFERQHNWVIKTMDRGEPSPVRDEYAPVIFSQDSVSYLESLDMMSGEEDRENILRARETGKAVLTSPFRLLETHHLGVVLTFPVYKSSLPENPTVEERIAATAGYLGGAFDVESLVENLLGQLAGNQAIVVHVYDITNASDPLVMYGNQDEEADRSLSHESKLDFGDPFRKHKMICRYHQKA
# test_method_notes: microscale thermophoresis (MST), GFP-tagged target
property: Kd (nM)

1: CC(C)=CCNc1ncnc2nc[nH]c12
2: c1ccc(CNc2ncnc3nc[nH]c23)cc1
Smaller Kd value, 1 vs 2 ? Answer by quoting the chosen item's label.
2
(2: 27.7 nM, 1: 540 nM)
